Reference source for all entries: patent US12281102B2

Target: G1 APOL1 (Homo sapiens, UniProt O14791, I384M/S342G)
Construct: expressed in transfected cells
Sequence (O14791 28-398 S342G/I384M): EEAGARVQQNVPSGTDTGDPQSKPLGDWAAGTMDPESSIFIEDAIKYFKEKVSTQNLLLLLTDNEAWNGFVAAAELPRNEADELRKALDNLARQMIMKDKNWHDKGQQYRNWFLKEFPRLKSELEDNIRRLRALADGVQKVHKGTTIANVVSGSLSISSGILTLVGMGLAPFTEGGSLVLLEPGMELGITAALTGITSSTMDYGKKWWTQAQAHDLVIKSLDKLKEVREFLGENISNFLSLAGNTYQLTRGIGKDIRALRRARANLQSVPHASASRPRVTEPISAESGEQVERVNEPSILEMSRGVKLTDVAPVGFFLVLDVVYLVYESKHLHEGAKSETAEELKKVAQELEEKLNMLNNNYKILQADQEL
Assay: Acute APOL1 Thallium Assay with inducible stable clones of HEK 293 cells
Type: cell-based
Conditions: HEK 293 T-Rex inducible stable clone expressing G1 APOL1; read-out: Thallium Assay (IC50)
pIC50: −log10 of the molar value.
Reported metric: pIC50

Previously resolved entries follow.
• O=C(NC[C@H]1C[C@H](c2c(-c3ccc(F)cc3)[nH]c3c(F)cc(F)cc32)C1)[C@@H]1COCCN1 [Compound 276] = < 6.00
• CN1CCC(CC(=O)N[C@H]2C[C@@H](c3c(-c4ccc(F)cc4)[nH]c4c(F)cc(F)cc43)C2)CC1 [Compound 52] = < 6.00
• O=S(=O)(N[C@H]1C[C@H](c2c(-c3ccc(F)cc3)[nH]c3c(F)cc(F)cc32)C1)C1CCOCC1 [Compound 156] = < 6.00
• NC1CCC(c2c(-c3ccc(F)cc3)[nH]c3c(F)cc(F)cc23)CC1 (stereo not shown) [Compound 433] = > 6.60
• COCCNCC1CC(c2c(-c3ccc(F)cc3)[nH]c3c(F)cc(F)cc23)C1 (stereo not shown) [Compound 375] = > 6.60

## Input Report pIC50 for CC1(C(=O)NC2CC(Cc3c(-c4ccc(F)cc4)[nH]c4c(F)cc(F)cc34)C2)CCNC1=O (mixture of isomers) [Compound 169] please.
## Output < 6.00

## Input Similarly, OCC(CO)(CO)NCC1CC(c2c(-c3ccc(F)cc3)[nH]c3c(F)cc(F)cc23)C1 (stereo not shown) [Compound 406] ?
## Output < 6.00

----------
Target: G1 APOL1 (Homo sapiens, UniProt O14791, I384M/S342G)
Construct: expressed in transfected cells
Experiment: Acute APOL1 Thallium Assay with inducible stable clones of HEK 293 cells
Type: cell-based
Conditions: HEK 293 T-Rex inducible stable clone expressing G1 APOL1; read-out: Thallium Assay (IC50)
Each record here notes measured IC50.

In the examples that follow, each entry is paired with its recorded IC50.
• N#Cc1ccc(-c2[nH]c3c(F)cc(F)cc3c2C2CC(CN)C2)cc1 (centres unmarked) [Compound 185] = < 0.25 µM
• CN1CCC(NCC2CC(c3c(-c4ccc(F)cc4)[nH]c4c(F)cc(F)cc34)C2)C1=O (centres unmarked) [Compound 381] = 0.25 to 1 µM
• O=C(CO)NC[C@H]1C[C@@H](c2c(-c3ccc(F)cc3)[nH]c3c(F)cc(F)cc32)C1 [Compound 210] = 0.25 to 1 µM
• CC(NS(C)(=O)=O)C(=O)N[C@H]1C[C@@H](c2c(-c3ccc(F)cc3)[nH]c3c(F)cc(F)cc32)C1 (mixture of isomers) [Compound 55] = > 1 µM
• CN(C)CC(=O)NC[C@H]1C[C@@H](c2c(-c3ccc(F)cc3)[nH]c3c(F)cc(F)cc32)C1 [Compound 320] = > 1 µM

## Input Need IC50 of CCS(=O)(=O)NC[C@H]1C[C@H](c2c(-c3ccc(F)cc3)[nH]c3c(F)cc(F)cc32)C1 [Compound 413] , thanks.
## Output 0.25 to 1 µM

## Input Check NC(=O)C(=O)NC[C@H]1C[C@@H](c2c(-c3ccc(F)cc3)[nH]c3c(F)cc(F)cc32)C1 [Compound 453] too.
## Output > 1 µM

## Input Follow-up entry: CC1(NCC2CC(c3c(-c4ccc(F)cc4)[nH]c4c(F)cc(F)cc34)C2)COC1 (centres unmarked) [Compound 404]
## Output > 1 µM

## Input Also C[C@@H](O)[C@@H](CO)NS(=O)(=O)NC[C@H]1C[C@H](c2c(-c3ccc(F)cc3)[nH]c3c(F)cc(F)cc32)C1 [Compound 363] ?
## Output > 1 µM

## Input # iterate: O=C(CN1CCCC1)N[C@H]1C[C@@H](c2c(-c3ccc(F)cc3)[nH]c3c(F)cc(F)cc32)C1 [Compound 46]
## Output > 1 µM

## Input Please answer likewise for O=C1CC(C(=O)NC[C@H]2C[C@@H](c3c(-c4ccc(F)cc4)[nH]c4c(F)cc(F)cc43)C2)CN1 (some centres unmarked) [Compound 294]
## Output > 1 µM

## Input And for CS(=O)(=O)NC[C@H]1C[C@H](c2c(-c3ccc(F)cc3)[nH]c3c(F)cc(F)cc32)C1 [Compound 412] ?
## Output 0.25 to 1 µM

## Input One more molecule: CC(C)C(O)C(=O)NC[C@H]1C[C@@H](c2c(-c3ccc(F)cc3)[nH]c3c(F)cc(F)cc32)C1 (some centres unmarked) [Compound 301]
## Output > 1 µM
